Tested on: CAL-120
protocolSummary: normalised response (% of control), CellTiter-Glo; higher = more viable cells (100 = DMSO, 0 = benzethonium chloride kill control)
testParameters: incubation time: 72 h
Attribute: normalised response
metric: normalised response (%)

compound: CC(C)C[C@H](NC(=O)[C@H](Cc1ccccc1)NC(=O)c1cnccn1)B(O)O [Bortezomib] (100 nM)
valueUnit: %
dataValue: 10.4

compound: COc1ccc(C2=N[C@@H](c3ccc(Cl)cc3)[C@@H](c3ccc(Cl)cc3)N2C(=O)N2CCNC(=O)C2)c(OC(C)C)c1 [Nutlin-3] (10 nM)
valueUnit: %
dataValue: 98.3

compound: CS(=O)(=O)OCCCCOS(C)(=O)=O [Busulfan] (10000 nM)
valueUnit: %
dataValue: 94.9

compound: C#Cc1cccc(Nc2ncnc3cc(OC)c(OCCCCCCC(=O)NO)cc23)c1 [CUDC-101] (10 nM)
valueUnit: %
dataValue: 99.8

compound: CS(=O)(=O)CCNCc1ccc(-c2ccc3ncnc(Nc4ccc(OCc5cccc(F)c5)c(Cl)c4)c3c2)o1 [Lapatinib] (0.1 nM)
valueUnit: %
dataValue: 96

compound: COC(=O)C[C@](O)(CCCC(C)(C)O)C(=O)O[C@@H]1C(OC)=C[C@]23CCCN2CCc2cc4c(cc2[C@H]13)OCO4 [Omacetaxine] (10 nM)
valueUnit: %
dataValue: 103

compound: COC1=C2C[C@@H](C)C[C@H](OC)[C@H](O)[C@@H](C)/C=C(\C)[C@H](OC(N)=O)[C@@H](OC)/C=C\C=C(/C)C(=O)NC(=CC1=O)C2=O [Geldanamycin] (10 nM)
valueUnit: %
dataValue: 102

compound: C[C@@]1(C(=O)Nc2ccc(F)nc2)CCCN1c1nc(Nc2cc(C3CC3)n[nH]2)c2cccn2n1 (1000 nM)
valueUnit: %
dataValue: 59.3

compound: Cc1cc(C(C)Nc2ccccc2)c2nc(N3CCOCC3)cc(=O)n2c1 (stereo unspecified) [TGX-221] (1000 nM)
valueUnit: %
dataValue: 94.8

compound: CC(C)(C)c1cc(NC(=O)Nc2ccc(-c3cn4c(n3)sc3cc(OCCN5CCOCC5)ccc34)cc2)no1 [Quizartinib] (1 nM)
valueUnit: %
dataValue: 111

compound: C#Cc1cccc(Nc2ncnc3cc(OC)c(OCCCCCCC(=O)NO)cc23)c1 [CUDC-101] (1 nM)
valueUnit: %
dataValue: 100
